ASSAY_INFO: Pharmacokinetic study of DH in rats after oral and intravenous administration (non-compartmental analysis)
Type: in vivo, male Sprague–Dawley (SD) rats
STUDY_CONDITIONS: male, Sprague-Dawley, rat, plasma, iv, I.V. 1.9 mg/kg, n = 6, mean ± SD
OBSERVABLE: Cmax (ng/mL)
Answers are plain numbers, in ng/mL.

Query: Which value of Cmax has been reported for COc1cc2c(cc1OC)C(c1ccc(N(C)C)cc1)NCC2 (stereo not shown) [DH, N, N-dimethylaniline-heliamine] in the records?
Reply: 183

* * *

ASSAY_INFO: Pharmacokinetic study of DH in rats after oral and intravenous administration (non-compartmental analysis)
Assay type: in vivo, male Sprague–Dawley (SD) rats
STUDY_CONDITIONS: male, Sprague-Dawley, rat, plasma, po, P.O. 19.2 mg/kg, n = 6, mean ± SD, read-out: T1/2 (terminal half-life) (converted)
Protocol: The Xinjiang Medical University (Xinjiang, China) provided twelve male Sprague–Dawley (SD) rats (weight 200 ± 20 g). The Animal Experimentation Ethics Committee of Xinjiang Medical University gave its approval to all animal experiments. […] Rat plasma samples were assessed for DH using a Thermo Fisher Scientific Q Exactive Plus Orbitrap MS and a Dionnex Ultimate 3000 RSL nano System (Thermo Fisher Scientific, Bremen, Germany). […]
OBSERVABLE: half-life
Write your answer as a measured quantity: the number, then the unit.

Query: Which value of half-life has been reported for COc1cc2c(cc1OC)C(c1ccc(N(C)C)cc1)NCC2 (stereo not shown) in the records?
Reply: 2.96 h

* * *

ASSAY_INFO: Pharmacokinetic study of DH in rats after oral and intravenous administration (non-compartmental analysis)
Type: in vivo, male Sprague–Dawley (SD) rats
STUDY_CONDITIONS: I.V. 1.9 mg/kg, n = 6, mean ± SD
Description: The Xinjiang Medical University (Xinjiang, China) provided twelve male Sprague–Dawley (SD) rats (weight 200 ± 20 g). The Animal Experimentation Ethics Committee of Xinjiang Medical University gave its approval to all animal experiments. […] Rat plasma samples were assessed for DH using a Thermo Fisher Scientific Q Exactive Plus Orbitrap MS and a Dionnex Ultimate 3000 RSL nano System (Thermo Fisher Scientific, Bremen, Germany). […]
OBSERVABLE: AUC0–∞

Query: Which value of AUC0–∞ has been reported for COc1cc2c(cc1OC)C(c1ccc(N(C)C)cc1)NCC2 (stereo not shown) [DH, N, N-dimethylaniline-heliamine] in the records?
Reply: 495 ng·h/mL

* * *

ASSAY_INFO: Pharmacokinetic study of DH in rats after oral and intravenous administration (non-compartmental analysis)
Format: in vivo, male Sprague–Dawley (SD) rats
STUDY_CONDITIONS: male, Sprague-Dawley, rat, plasma, oral, P.O. 19.2 mg/kg vs I.V. 1.9 mg/kg, read-out: Fabs (absolute oral bioavailability)
Protocol: The Xinjiang Medical University (Xinjiang, China) provided twelve male Sprague–Dawley (SD) rats (weight 200 ± 20 g). The Animal Experimentation Ethics Committee of Xinjiang Medical University gave its approval to all animal experiments. […] Rat plasma samples were assessed for DH using a Thermo Fisher Scientific Q Exactive Plus Orbitrap MS and a Dionnex Ultimate 3000 RSL nano System (Thermo Fisher Scientific, Bremen, Germany). […]
OBSERVABLE: bioavailability (%)
Give bare numbers, in %.

Query: Which value of bioavailability has been reported for COc1cc2c(cc1OC)C(c1ccc(N(C)C)cc1)NCC2 (stereo not shown) in the records?
Reply: 16.1

Data credit: paper PMC11434354
